Molecular target: T1, human scavenger receptor class B, type 1 (SR-BI) (human, UniProt Q8WTV0 1-552)
T1 sequence (looked up): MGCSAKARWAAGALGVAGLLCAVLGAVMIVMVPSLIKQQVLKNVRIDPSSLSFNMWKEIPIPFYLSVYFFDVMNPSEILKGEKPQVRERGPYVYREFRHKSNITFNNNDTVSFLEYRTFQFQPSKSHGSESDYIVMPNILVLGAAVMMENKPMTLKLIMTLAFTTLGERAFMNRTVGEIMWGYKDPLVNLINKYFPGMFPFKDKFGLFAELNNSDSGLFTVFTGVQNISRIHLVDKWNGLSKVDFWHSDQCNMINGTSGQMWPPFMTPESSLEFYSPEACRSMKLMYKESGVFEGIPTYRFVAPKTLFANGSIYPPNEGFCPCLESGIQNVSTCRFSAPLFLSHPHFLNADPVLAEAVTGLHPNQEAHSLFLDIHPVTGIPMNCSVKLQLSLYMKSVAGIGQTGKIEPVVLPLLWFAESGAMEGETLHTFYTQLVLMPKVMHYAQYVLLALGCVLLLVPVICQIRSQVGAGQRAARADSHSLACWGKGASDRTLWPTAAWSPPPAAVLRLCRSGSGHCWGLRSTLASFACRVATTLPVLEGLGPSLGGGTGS
Test: cell-based or functional assay
Non-standard residues stand in square brackets, D forms with d. No end group written: not given here. Aib = CC(C)(N)C(=O)O
Listing: Induced DiI Uptake (pmol/ug/ml), BHK(SR-BI) cells induced for human SR-BI, 4 h of selected binders
Readout type: Induced DiI Uptake (pmol/ug/ml), BHK(SR-BI) cells induced for human SR-BI, 4 h

DV[Aib]QKLFELFNQLLEKWKQV (also: formulated as DiI-labeled peptide amphiphile lipid micelle with POPC and egg sphingomyelin) [DiI-labeled PALM prepared with the peptide of SEQ ID NO: 27]: 0.66 pmol/µg/mL
DVFQ[Aib]LKELFNQLLEKWKQV (also: formulated in a micelle with POPC, egg sphingomyelin and DiI) [DiI-labeled PALM prepared with the peptide of SEQ ID NO: 3]: 0.29 pmol/µg/mL
DVFQKL[Aib]ELFNQL[Aib]EKWKQV (also: formulated as DiI-labeled peptide amphiphile lipid micelle with POPC and egg sphingomyelin) [DiI-labeled PALM prepared with the peptide of SEQ ID NO: 35]: 1.26 pmol/µg/mL
DV[Aib]QKFLELFNQLLEKWKQV (also: formulated as DiI-labeled peptide amphiphile lipid micelle with POPC and egg sphingomyelin) [DiI-labeled PALM prepared with the peptide of SEQ ID NO: 32]: 0.9 pmol/µg/mL
